Reference for the values: patent US20240158391A1

Target system: CDK7/CyclinH/Mat1 (Homo sapiens, UniProt P50613)
Sequence (P50613 whole entry, species assumed): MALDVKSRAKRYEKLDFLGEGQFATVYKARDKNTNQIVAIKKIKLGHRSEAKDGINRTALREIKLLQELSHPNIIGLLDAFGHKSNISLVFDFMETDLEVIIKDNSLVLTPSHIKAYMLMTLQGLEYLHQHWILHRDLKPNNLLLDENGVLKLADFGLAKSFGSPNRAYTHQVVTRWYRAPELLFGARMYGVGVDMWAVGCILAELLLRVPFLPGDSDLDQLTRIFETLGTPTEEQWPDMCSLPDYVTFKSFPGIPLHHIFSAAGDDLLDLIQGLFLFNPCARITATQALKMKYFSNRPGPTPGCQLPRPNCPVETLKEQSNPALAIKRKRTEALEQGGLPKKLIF
Sequence (P51946 whole entry partner, species assumed): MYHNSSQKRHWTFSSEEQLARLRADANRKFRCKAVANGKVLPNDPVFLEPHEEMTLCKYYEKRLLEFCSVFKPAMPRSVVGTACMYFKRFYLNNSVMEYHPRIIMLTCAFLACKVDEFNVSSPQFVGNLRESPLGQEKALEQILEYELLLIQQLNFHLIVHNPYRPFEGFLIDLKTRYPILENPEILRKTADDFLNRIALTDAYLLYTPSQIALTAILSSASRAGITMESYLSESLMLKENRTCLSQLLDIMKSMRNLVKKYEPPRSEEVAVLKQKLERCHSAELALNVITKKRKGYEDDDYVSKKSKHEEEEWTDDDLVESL
Sequence (P51948 whole entry partner, species assumed): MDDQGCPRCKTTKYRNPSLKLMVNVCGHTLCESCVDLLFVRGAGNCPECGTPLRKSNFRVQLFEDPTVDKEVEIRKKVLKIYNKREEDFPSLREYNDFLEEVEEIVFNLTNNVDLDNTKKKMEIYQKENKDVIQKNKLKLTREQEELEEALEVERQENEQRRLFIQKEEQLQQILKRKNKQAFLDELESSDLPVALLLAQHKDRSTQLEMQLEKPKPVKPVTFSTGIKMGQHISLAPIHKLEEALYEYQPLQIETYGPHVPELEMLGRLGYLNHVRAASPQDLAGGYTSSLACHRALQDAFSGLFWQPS
Protocol summary: ADP Glo kinase assay, CDK7/CyclinH/Mat1
Condition context: Km ATP, read-out: Enzymatic inhibition, Ki, CDK7 H
Reported metric: Ki

Give Ki for all compounds that follow.
1. c1ccc(-c2ccc3ncc(-c4ccnc(Nc5ccc(N6CCCC6)nc5)n4)n3c2)cc1 [Compound 27]
2. CS(=O)(=O)N1CCN(c2ccc(Nc3nccc(-c4cnc5ccc(-c6ccccc6)cn45)n3)cn2)CC1 [Compound 17]
3. CN1CCN(c2ccc(Nc3nccc(-c4cnc5ccc(-c6cncnc6)cn45)n3)cn2)CC1 [Compound 8]

*A*
["> 5 µM", "> 1 µM", "> 5 µM"]

*Q* Would you mind telling me what Ki value was observed for Brc1ccc2ncc(-c3ccnc(Nc4ccc(N5CCCC5)nc4)n3)n2c1 [Compound 26] ?
*A* > 5 µM

----------
Target system: CDK9/CyclinT1 (Homo sapiens)
Sequence (P50750 whole entry, species assumed): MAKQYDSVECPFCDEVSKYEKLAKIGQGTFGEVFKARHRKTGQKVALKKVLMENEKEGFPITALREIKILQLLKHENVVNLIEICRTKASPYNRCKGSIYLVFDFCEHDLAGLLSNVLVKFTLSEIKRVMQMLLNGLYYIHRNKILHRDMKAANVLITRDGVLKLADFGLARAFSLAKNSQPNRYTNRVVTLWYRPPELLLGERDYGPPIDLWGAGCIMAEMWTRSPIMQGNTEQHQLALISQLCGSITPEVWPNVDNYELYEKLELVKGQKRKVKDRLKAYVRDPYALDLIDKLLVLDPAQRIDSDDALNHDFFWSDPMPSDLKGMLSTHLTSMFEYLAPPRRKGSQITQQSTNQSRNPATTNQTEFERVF
Sequence (O60563 whole entry partner, species assumed): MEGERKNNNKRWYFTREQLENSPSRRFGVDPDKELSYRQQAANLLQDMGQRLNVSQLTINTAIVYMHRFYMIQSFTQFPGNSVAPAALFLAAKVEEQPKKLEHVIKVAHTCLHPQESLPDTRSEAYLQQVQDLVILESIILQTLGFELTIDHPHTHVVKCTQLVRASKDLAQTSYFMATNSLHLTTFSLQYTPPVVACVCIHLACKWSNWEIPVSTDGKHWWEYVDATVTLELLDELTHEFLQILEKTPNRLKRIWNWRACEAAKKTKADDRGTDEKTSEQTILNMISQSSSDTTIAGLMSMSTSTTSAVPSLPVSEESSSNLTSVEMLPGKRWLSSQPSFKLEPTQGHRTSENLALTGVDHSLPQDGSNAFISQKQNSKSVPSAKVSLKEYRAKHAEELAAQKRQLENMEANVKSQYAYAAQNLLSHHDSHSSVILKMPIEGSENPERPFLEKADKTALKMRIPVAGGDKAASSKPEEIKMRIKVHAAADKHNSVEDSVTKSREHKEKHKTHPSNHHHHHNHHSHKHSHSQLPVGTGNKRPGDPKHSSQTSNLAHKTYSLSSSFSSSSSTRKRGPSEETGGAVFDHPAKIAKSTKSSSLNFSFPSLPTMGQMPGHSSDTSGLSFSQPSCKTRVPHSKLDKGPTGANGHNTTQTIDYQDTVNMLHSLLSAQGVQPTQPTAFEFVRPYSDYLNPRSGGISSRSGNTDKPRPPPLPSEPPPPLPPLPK
Protocol summary: ADP Glo kinase assay, CDK9/CyclinT1
Condition context: CDK9/CyclinT1; Km ATP; read-out: Enzymatic inhibition, Ki, CDK9 T1
Consider the following molecules; for each one, report its Ki.

Example results:
Molecule: O=C(c1ccc(Nc2ncc(F)c(-c3cnc4ccc(-c5ccccc5)cn34)n2)cn1)N1CCCCC1 [Compound 32]
Result: > 1000 nM

Molecule: CN1CCN(c2ccc(Nc3nccc(-c4cnc5ccc(-c6ccccc6)cn45)n3)cn2)CC1 [Compound 6]
Result: < 0.1 nM

Molecule: Cc1cnc(Nc2ccc(N3CCOCC3)nc2)nc1-c1cnc2ccccn12 [Compound 14]
Result: > 5000 nM

Molecule: O=C(NC1CC1)c1ccc(Nc2ncc(F)c(-c3cnc4ccc(-c5ccccc5)cn34)n2)cn1 [Compound 33]
Result: > 500 nM

Molecule: CS(=O)(=O)N1CCN(c2ccc(Nc3nccc(-c4cnc5ccc(-c6cc7ccccc7o6)cn45)n3)cn2)CC1 [Compound 52]
Result: > 500 nM

Give Ki for all molecules that follow.
1. CC(C)N1CCN(c2ccc(Nc3nccc(-c4cnc5ccc(-c6ccc(F)nc6)cn45)n3)cn2)CC1 [Compound 55]
2. O=C1NCCC12CCN(c1ccc(Nc3nccc(-c4cnc5ccc(-c6cnn(C(F)F)c6)cn45)n3)cn1)CC2 [Compound 73]
3. O=C1NCCC12CCN(c1ccc(Nc3nccc(-c4cnc5ccc(-c6ccccc6)cn45)n3)cn1)CC2 [Compound 72]

*A*
36 nM
> 500 nM
> 500 nM

----------
Target system: CDK2/CyclinA2 (Homo sapiens)
Protocol summary: ADP Glo kinase assay, CDK2/CyclinA2
Assay type: biochemical
Condition context: compound at 1 μM, read-out: Residual enzymatic activity (%) at 1 μM, CDK2 A
Reported metric: remaining activity at 1 µM (%)
Answers are plain numbers, in %.

Example results:
Compound: CCCNc1ccc(Nc2nccc(-c3cnc4ccc(Br)cn34)n2)cn1
Target system: CDK2/CyclinA2 (Homo sapiens)
remaining activity at 1 µM (%): 41
//
Compound: O=C1NCCC12CCN(c1ccc(Nc3nccc(-c4cnc5ccc(Br)cn45)n3)cn1)CC2
Target system: CDK2/CyclinA2 (Homo sapiens)
remaining activity at 1 µM (%): 74
//
Compound: CN(C)c1ccc(Nc2nccc(-c3cnc4ccc(-c5ccccc5)cn34)n2)cn1
Target system: CDK2/CyclinA2 (Homo sapiens)
remaining activity at 1 µM (%): 73
//
Compound: O=C(c1ccc(Nc2ncc(F)c(-c3cnc4ccc(-c5ccccc5)cn34)n2)cn1)N1CCCCC1
Target system: CDK2/CyclinA2 (Homo sapiens)
remaining activity at 1 µM (%): 89
//
Compound: CN1CCN(c2ccc(Nc3nccc(-c4cnc5ccc(-c6ccccc6)cn45)n3)nc2)CC1 [Comparator compound A, reference compound]
Target system: CDK2/CyclinA2 (Homo sapiens)
remaining activity at 1 µM (%): 86

*Q* # value lookup — system CDK2/CyclinA2 (Homo sapiens), readout remaining activity at 1 µM, item CC(=O)N1CCN(c2ccc(Nc3nccc(-c4cnc5ccc(-c6cccc7[nH]ccc67)cn45)n3)cn2)CC1
*A* 51

----------
Target system: FLT3-ITD (Homo sapiens, UniProt P36888)
Protocol summary: ADP Glo kinase assay, FLT3-ITD
Condition context: Km ATP 100 μM, read-out: Enzymatic inhibition, Ki, FLT3-ITD
Reported metric: Ki (nM)
Give bare numbers, in nM.

Structure as smiles: CS(=O)(=O)N1CCN(c2ccc(Nc3nccc(-c4cnc5ccc(-c6cccnc6)cn45)n3)cn2)CC1
Ki [nM]: 4

Structure as smiles: CCN1CCN(Cc2ccc(Nc3nccc(-c4cnc5ccc(Br)cn45)n3)cn2)CC1
Ki [nM]: 70

Structure as smiles: CN1CCN(c2ccc(Nc3nccc(-c4cnc5ccc(F)cn45)n3)cn2)CC1
Ki [nM]: 7

Give Ki for all molecules that follow.
1. CN(C)C1CCN(Cc2ccc(Nc3nccc(-c4cnc5ccc(Br)cn45)n3)cn2)CC1
2. CS(=O)(=O)N1CCN(c2ccc(Nc3nccc(-c4cnc5ccc(-c6ccc(F)nc6)cn45)n3)cn2)CC1

*A*
1. 70
2. 84

*Q* Would you mind telling me what Ki value was observed for Cc1cnc(Nc2ccc(N3CCN(C)CC3)nc2)nc1-c1cnc2ccccn12 ?
*A* 9

----------
Tested on: MV-4-11
Protocol summary: Proliferation assay (resazurin, leukemia cell lines), MV-4-11
Assay type: cell-based
Condition context: Homo sapiens, MV4-11, read-out: 72 h Growth inhibition GI50, MV-4-11 cells
Consider the following compounds; for each one, report its GI50.
Numbers only, in nM.

Structure as smiles: CCS(=O)(=O)N1CCN(c2ccc(Nc3nccc(-c4cnc5ccc(-c6ccccc6)cn45)n3)cn2)CC1
GI50 / nM: 20
//
Structure as smiles: CN1CCN(c2ccc(Nc3nccc(-c4cnc5ccc(-c6cn[nH]c6)cn45)n3)cn2)CC1
GI50 / nM: 33

Give GI50 for all compounds that follow.
1. CN1CCN(c2ccc(Nc3nccc(-c4cnc5ccc(Cl)cn45)n3)cn2)CC1
2. COc1ccc(-c2ccc3ncc(-c4ccnc(Nc5ccc(N6CCN(C(C)=O)CC6)nc5)n4)n3c2)cn1
3. CS(=O)(=O)N1CCN(c2ccc(Nc3nccc(-c4cnc5ccc(-c6ccc(F)nc6)cn45)n3)cn2)CC1
4. Brc1ccc2ncc(-c3ccnc(Nc4ccc(NC5CCOCC5)nc4)n3)n2c1
5. CN1CCN(c2ccc(Nc3nccc(-c4cnc5ccc(-c6ccccc6)cn45)n3)cn2)CC1
6. CC(C)N1CCN(c2ccc(Nc3nccc(-c4cnc5ccc(-c6ccccc6)cn45)n3)cn2)CC1

*A*
6
18
23
30
4
88
